Tested on: VCaP cells
test_name: Inhibition of VCaP cell proliferation (WST-8)
Assay type: cell-based
measurement_setup: Homo sapiens, 168 hours
property_name: IC50 (nM)
The answer is to be given in nM; state only the numeric part.

molecule | measured_target | display_unit | endpoint_value
C[C@H]1CC2(CCN(c3ccc(C(=O)N4CCC(CN5CCN6c7ccc(C(=O)N[C@H]8CCC(=O)NC8=O)cc7OC[C@H]6C5)CC4)cc3)CC2)CN1c1ccc(C#N)c(Cl)c1 | VCaP cells | nM | 4.5

IN: Fill in the blank: the reported IC50 of CC1(CN2CCC3(CCc4cc(C(=O)N[C@H]5CCC(=O)NC5=O)c(F)cc4O3)CC2)CCN(c2ccc(C(=O)N[C@H]3C(C)(C)[C@H](Oc4ccc(C#N)c(Cl)c4)C3(C)C)cc2)CC1 is ____.
OUT: 1050

IN: So what's the measured IC50 for this one? COc1cc2c(cc1C(=O)N[C@H]1CCC(=O)NC1=O)C1(CCN(CC3CCN(C(=O)c4ccc(N5CCC6(CC5)C[C@H](C)N(c5ccc(C#N)c(Cl)c5)C6)cc4)CC3)CC1)CO2
OUT: 49

IN: # input molecule: COc1cc(O[C@H]2CC[C@H](NC(=O)c3ccc(N4CCC(CN5CCC6(CC5)COc5c6ccc6c5n(C)c(=O)n6C5CCC(=O)NC5=O)CC4)nn3)CC2)ccc1C#N (some centres unmarked) ; wanted: its IC50
OUT: 0.026

// provenance: patent EP4722219A1
